# Test system: KRas G12C mutant
# Assay Comment: Ras GTP binding domain inhibition assay (Cy3-GTP/Cy5-GTP competition)
# Set-up: species or system human
# Protocol Conditions: 20 μM; with SOS
Measured Parameter: KRas G12C mutant + SOS: % inh.

1) COC1CCN(c2nc(-c3nccn3C)nc3sc(-c4ccccc4CO)c(-c4ccccc4)c23)C1.Cl (stereo not shown): D (76-100% inhibition)
2) COCCCNc1nc(-c2nccn2C)nc2sc(-c3ccn(C)n3)c(-c3ccccc3)c12 [drawing 866]: B (26-50% inhibition)
3) Cn1ccnc1-c1nc(O)c2scc(-c3ccccn3)c2n1 [drawing 853]: C (51-75% inhibition)
4) COCCn1cc(-c2sc3nc(-c4nccn4C)nc(N4CCC(OC)C4)c3c2-c2ccccc2)cn1.Cl (stereo not shown): D (76-100% inhibition)
5) COCCc1ccc(Oc2nc(-c3ccccn3)nc(O)c2OC)cc1 [drawing 814]: B (26-50% inhibition)
6) Cc1cc(Cn2ccnc2-c2nc(O)c3scc(-c4ccccn4)c3n2)on1 [drawing 846]: C (51-75% inhibition)
7) COC1CCN(c2nc(-c3nccn3C)nc3sc(-c4cnc(C5CC5)o4)c(-c4ccccc4)c23)C1.Cl (stereo not shown): C (51-75% inhibition)
8) Cn1ccc(-c2sc3nc(-c4nccn4C)nc(N4CCC5(CCOC5)C4)c3c2-c2ccccc2)n1 (stereo not shown) [drawing 857]: B (26-50% inhibition)
9) CO[C@H]1CCC(Nc2nc(-c3nccn3C)nc3sc(-c4ccn(C)n4)c(-c4ccccc4)c23)C1 (stereo partly shown) [drawing 860]: D (76-100% inhibition)
10) COc1cccc(-c2sc3nc(-c4nccn4C)nc(N4CCC(OC)C4)c3c2-c2cscn2)c1 (stereo not shown) [drawing 867]: D (76-100% inhibition)

###

# Experimental Target: Rho-A (Homo sapiens)
# Assay Comment: Ras GTP binding domain inhibition assay (Cy3-GTP/Cy5-GTP competition)
# Protocol Conditions: without SOS, read-out: Rho-A: % inh.
Reported inhibition at 20 µM values for the following molecules.
Measured Parameter: inhibition at 20 µM (%)

1) COC1CCN(c2nc(-c3nccn3C)nc3sc(-c4ccc(N)nc4C)c(-c4ccccc4)c23)C1 (centres unmarked) [drawing 953]: 0
2) Cn1ccc(-c2sc3nc(-c4nccn4C)nc(N4CCC5(CCOC5)C4)c3c2-c2ccccc2)n1 (centres unmarked) [drawing 992]: 0

###

# Test system: KRas G12C mutant
# Assay Comment: Ras GTP binding domain inhibition assay (Cy3-GTP/Cy5-GTP competition)
# Set-up: species or system human
# Protocol Conditions: 20 μM; with SOS (Table 7A)
# Text: The following method was developed as specific assay for the following proteins: KRas wild type, KRas Q61H mutant, KRas G12C mutant, KRas G12D mutant, HRas wild type, Rac-1, and Rho-A. […] The small GTPases proteins: KRas wild type. KRas Q61H mutant, KRas G12C mutant, KRas G12D mutants, HRas wild type, Rac-1, and Rho-A were expressed as His-tagged proteins. In addition, the Guanosine nucleotide Exchange Factor (GEF) Sos protein (residues 556-1049) was expressed as a His-tagged protein. […]
Measured Parameter: KRas G12C mutant + SOS: % inh.

1. CN(C)CCOCCNc1nc(-c2nccn2C)nc2sc(-c3ccn(C)n3)c(-c3ccccc3)c12 [drawing 907]: C (51-75% inhibition)
2. CO[C@H]1C[C@@H](Nc2nc(-c3ccccn3)nc3sccc23)C1 [drawing 902]: C (51-75% inhibition)

###

Reported inhibition at 20 µM values for the following compounds.
# Experimental Target: Rho-A (Homo sapiens)
# Assay Comment: Ras GTP binding domain inhibition assay (Cy3-GTP/Cy5-GTP competition)
# Protocol Conditions: with SOS, read-out: Rho-A + SOS: % inh.
Measured Parameter: inhibition at 20 µM

1) COc1ccc(Oc2nc(-c3ccccn3)nc(O)c2OC)cc1 [drawing 950]: 51 to 75%
2) COC(=O)c1nc(-c2nccn2C)nc(O)c1O [drawing 959]: 51 to 75%
3) COCCNc1nc(-c2nccn2C)nc2sc(-c3cccc(OC)c3Cl)c(-c3ccc(OC)cc3)c12 [drawing 1009]: 26 to 50%
4) COc1c(O)nc(-c2ccccn2)nc1Oc1cccnc1 [drawing 937]: 76 to 100%

###

# System: KRas G12C mutant
# Assay Comment: Ras GTP binding domain inhibition assay (Cy3-GTP/Cy5-GTP competition)
# Design: species or system human
# Protocol Conditions: 20 μM; without SOS
Measured Parameter: KRas G12C mutant: % inh.

1) CO[C@H]1CCC(Nc2nc(-c3nccn3C)nc3sc(-c4ccn(C)n4)c(-c4ccccc4)c23)C1 (stereo partly drawn) [drawing 860]: B (26-50% inhibition)
2) COCCNc1nc(-c2nccn2C)nc2sc(-c3cccc(OC)c3Cl)c(-c3ccccc3)c12 [drawing 872]: C (51-75% inhibition)
3) Cn1ccnc1-c1nc(O)c(O)c(C(=O)N2CCCC2)n1 [drawing 828]: B (26-50% inhibition)
4) COCCNc1nc(-c2cn(C)cn2)nc2sc(-c3ccccc3Cl)c(-c3ccc(OC)cc3)c12 [drawing 873]: C (51-75% inhibition)
5) COC(=O)c1nc(C2NCCN2C)nc(O)c1O (stereo not drawn): D (76-100% inhibition)
6) Oc1nc(-c2cn(-c3ccccc3)cn2)nc2c(-c3ccccn3)csc12 [drawing 847]: 0 (0% inhibition)
7) COC1CCN(c2nc(-c3nccn3C)nc3sc(-c4ccccc4Cl)c(-c4cscn4)c23)C1 (stereo not drawn) [drawing 849]: B (26-50% inhibition)
8) Cn1ccnc1-c1nc(O)c(O)c(C(=O)NC2CCCC2)n1 [drawing 827]: C (51-75% inhibition)
9) COCCNc1nc(-c2nccn2C)nc2sc(-c3cccc(OC)c3Cl)c(-c3ccc(OC)cc3)c12 [drawing 874]: B (26-50% inhibition)
10) Cn1ccc(-c2sc3nc(-c4nccn4C)nc(NC4CCOCC4)c3c2-c2ccccc2)n1 [drawing 862]: 0 (0% inhibition)
11) COCC(C)Nc1nc(-c2nccn2C)nc2sc(-c3ccccc3Cl)c(-c3cscn3)c12 (stereo not drawn) [drawing 854]: C (51-75% inhibition)
12) CO[C@@H]1CCC(Nc2nc(-c3nccn3C)nc3sc(-c4ccn(C)n4)c(-c4ccccc4)c23)C1 (stereo partly drawn) [drawing 859]: A (1-25% inhibition)
13) Oc1nc(-c2ncc3n2CCCC3)nc2c(-c3ccccn3)csc12 [drawing 833]: D (76-100% inhibition)
14) COC1CCN(c2nc(-c3nccn3C)nc3sc(-c4cccnc4)c(-c4ccccc4)c23)C1.Cl (stereo not drawn): D (76-100% inhibition)
15) COC1CCN(c2nc(-c3nccn3C)nc3sc(-c4ccnc(N(C)C)c4)c(-c4ccccc4)c23)C1.Cl (stereo not drawn): A (1-25% inhibition)
16) COc1ncccc1-c1sc2nc(-c3nccn3C)nc(N3CCC(OC)C3)c2c1-c1ccccc1.Cl (stereo not drawn): C (51-75% inhibition)
17) COc1ccc(Cn2cnc(-c3nc(O)c4scc(-c5ccccn5)c4n3)c2)cc1 [drawing 839]: B (26-50% inhibition)
18) COc1c(O)nc(-c2ccccn2)nc1Oc1cccnc1 [drawing 802]: C (51-75% inhibition)
19) COC1CCN(c2nc(-c3nccn3C)nc3sc(-c4ccc(CO)cc4)c(-c4ccccc4)c23)C1.Cl (stereo not drawn): 0 (0% inhibition)
20) COc1cccc(-c2csc3c(O)nc(-c4nccn4C)nc23)c1Cl [drawing 878]: A (1-25% inhibition)
21) COC1CCN(c2nc(-c3nccn3C)nc3sc(-c4cnn(C)c4)c(-c4ccccc4)c23)C1.Cl (stereo not drawn): C (51-75% inhibition)
22) COCCNc1nc(-c2cn(C)cn2)nc2sc(-c3cc(OC)ccc3Cl)c(-c3ccc(OC)cc3)c12 [drawing 795]: B (26-50% inhibition)
23) COc1cccc(Cn2ccnc2-c2nc(O)c3scc(-c4ccccn4)c3n2)c1 [drawing 850]: C (51-75% inhibition)
24) COC1CCN(c2nc(-c3nccn3C)nc3sc(-c4ccn(C)n4)c(-c4ccccc4)c23)C1 (stereo not drawn) [drawing 863]: A (1-25% inhibition)

###

# Experimental Target: KRas G12D mutant (Homo sapiens, UniProt P01116, G12D)
# Construct: fused on or other part: His tag, used for capture on nickel-coated plates
# Assay Comment: Ras GTP binding domain inhibition assay (Cy3-GTP/Cy5-GTP competition)
# Protocol Conditions: 20 μM; with SOS (Table 7A); read-out: KRas G12D mutant + SOS: % inh.
Measured Parameter: inhibition at 20 µM

1. COc1c(F)cccc1-c1sc2nc(-c3nccn3C)nc(N[C@@H]3CC[C@H](OC)C3)c2c1-c1ccccc1 [drawing 887]: 76 to 100%
2. CO[C@H]1CC[C@@H](Nc2nc(-c3nccn3C)nc3sc(-c4cccc5[nH]ncc45)c(-c4ccccc4)c23)C1 [drawing 889]: 51 to 75%
3. CO[C@H]1C[C@@H](Nc2nc(-c3nccn3C)nc3sc(-c4ccn(C)n4)c(C)c23)C1 [drawing 914]: 51 to 75%
4. CO[C@H]1CC[C@@H](Nc2nc(-c3nccn3C)nc3sc(-c4ccn(C(C)C)n4)c(C)c23)C1 [drawing 919]: 51 to 75%
5. COC1CCN(c2nc(-c3nccn3C)nc3sc(-c4cccc(O)c4F)c(-c4ccccc4)c23)C1 (stereo not drawn) [drawing 890]: 51 to 75%
6. COC1CCC(Nc2nc(-c3nccn3C)nc3sc(-c4cccc5[nH]ncc45)c(-c4ccccc4)c23)C1 (stereo not drawn) [drawing 888]: 26 to 50%
